- Tested system: affinity purified β2GPI-dependent antiphospholipid antibody
- Procedure text: Competitive inhibition ELISA: recombinant β2GPI proteins compete for antibody binding to coated full length recombinant β2GPI
- Design: species or system human
- Measurement parameters: Ab 6701; read-out: 50% (concentration to give 50% inhibition)
pIC50: −log10 of the molar value.
Measurement type: pIC50

input: Give me measured pIC50, please, for this molecule: --345: recombinant β2GPI deletion mutant with domains 3, 4, 5 (protein) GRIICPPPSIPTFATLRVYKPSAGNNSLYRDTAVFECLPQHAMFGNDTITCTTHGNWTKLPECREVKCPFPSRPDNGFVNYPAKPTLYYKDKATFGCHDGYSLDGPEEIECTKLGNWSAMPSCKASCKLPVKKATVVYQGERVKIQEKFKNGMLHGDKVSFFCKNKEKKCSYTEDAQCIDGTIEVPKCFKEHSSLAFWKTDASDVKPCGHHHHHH
output: < 4.82

input: Give me measured pIC50, please, for this molecule: -2345: recombinant β2GPI deletion mutant with domains 2-5 (protein) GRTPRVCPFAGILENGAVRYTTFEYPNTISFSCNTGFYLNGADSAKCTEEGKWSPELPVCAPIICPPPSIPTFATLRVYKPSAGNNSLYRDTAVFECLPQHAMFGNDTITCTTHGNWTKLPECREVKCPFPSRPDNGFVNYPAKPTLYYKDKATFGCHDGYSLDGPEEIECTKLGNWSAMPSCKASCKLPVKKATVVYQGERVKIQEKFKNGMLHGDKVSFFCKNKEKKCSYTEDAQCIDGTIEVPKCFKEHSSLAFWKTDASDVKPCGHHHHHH
output: < 4.80

Data origin: patent US6858210B1
